Provenance of the data: patent US12589143B2

Readings of Immunogenicity (titers) 1′ Conc. 1: for the listed sequences
Test system: MVF-PD-L1 peptide immunogen
Method Summary: Immunogenicity in Balb/c mice, experiment 1 (CT26 WT): ELISA of sera vs each MVF-PD-L1 peptide immunogen
Type: in vivo
Assay Context: Balb/c mice, bleed 1Y + 3
Where no end group is shown, it is not given here.
Reported Property: Immunogenicity (titers) 1′ Conc. 1:

{"Chain": "KLLSLIKGVIVHRLEGVEGPSLYRCMISYGGADYKRITVK (KLLSLIKGVIVHRLEGVEGPSLYRCMISYGGADYKRITVK-NH2) [PD-L1(95)]", "Obs Value": 0}
{"Chain": "KLLSLIKGVIVHRLEGVEGPSLFVHGEEDLKVQHSSYRQR (KLLSLIKGVIVHRLEGVEGPSLFVHGEEDLKVQHSSYRQR-NH2) [PD-L1(50)]", "Obs Value": 6400}
{"Chain": "KLLSLIKGVIVHRLEGVEGPSLVTSEHELTCQAEGYPKAE (KLLSLIKGVIVHRLEGVEGPSLVTSEHELTCQAEGYPKAE-NH2) [PD-L1(130)]", "Obs Value": 12800}
{"Chain": "KLLSLIKGVIVHRLEGVEGPSLLIVYWEMEDKNIIQFVHG (KLLSLIKGVIVHRLEGVEGPSLLIVYWEMEDKNIIQFVHG-NH2) [PD-L1(36)]", "Obs Value": 400}
